// values below are IC50; system is HDAC9 (Homo sapiens, UniProt Q9UKV0)
Sequence (Q9UKV0 whole entry): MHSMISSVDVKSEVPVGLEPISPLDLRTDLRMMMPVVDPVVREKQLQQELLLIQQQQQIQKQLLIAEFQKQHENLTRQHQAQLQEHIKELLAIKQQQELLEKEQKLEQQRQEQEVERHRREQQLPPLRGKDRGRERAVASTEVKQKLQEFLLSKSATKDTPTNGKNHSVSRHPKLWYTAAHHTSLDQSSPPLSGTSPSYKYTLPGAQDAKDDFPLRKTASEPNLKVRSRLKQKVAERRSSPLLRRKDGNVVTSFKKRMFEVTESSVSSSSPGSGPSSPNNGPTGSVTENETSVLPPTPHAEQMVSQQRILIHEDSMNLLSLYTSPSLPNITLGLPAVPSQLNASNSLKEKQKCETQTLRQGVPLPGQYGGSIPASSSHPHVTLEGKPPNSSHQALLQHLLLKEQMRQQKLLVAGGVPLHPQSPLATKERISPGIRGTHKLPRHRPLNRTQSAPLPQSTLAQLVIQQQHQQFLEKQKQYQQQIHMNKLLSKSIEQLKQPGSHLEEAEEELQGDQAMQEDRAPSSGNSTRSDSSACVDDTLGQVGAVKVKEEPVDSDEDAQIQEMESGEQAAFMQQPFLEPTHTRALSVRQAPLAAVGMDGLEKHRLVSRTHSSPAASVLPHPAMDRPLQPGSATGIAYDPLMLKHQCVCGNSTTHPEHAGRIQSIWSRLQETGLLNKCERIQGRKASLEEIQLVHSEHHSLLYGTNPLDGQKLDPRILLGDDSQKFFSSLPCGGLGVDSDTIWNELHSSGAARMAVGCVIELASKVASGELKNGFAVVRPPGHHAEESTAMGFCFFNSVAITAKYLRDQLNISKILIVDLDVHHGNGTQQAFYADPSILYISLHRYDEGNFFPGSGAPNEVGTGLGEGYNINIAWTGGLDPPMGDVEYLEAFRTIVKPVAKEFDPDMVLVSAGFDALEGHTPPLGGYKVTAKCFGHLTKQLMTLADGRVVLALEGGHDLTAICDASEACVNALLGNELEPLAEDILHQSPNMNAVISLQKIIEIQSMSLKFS
experimental_readout: IC50 (µM)

Solved entries:
compound="O=C(NO)c1ccc(CN2c3ccccc3Oc3ccc(C(=O)Nc4ccccc4)cc32)cc1 [Compound 12b]" target="HDAC9 (Homo sapiens, UniProt Q9UKV0)" observed_value=3.49
compound="O=C(NO)c1ccc(CN2c3ccccc3Oc3cc(C(=O)Nc4ccc(C(=O)c5ccccc5)cc4)ccc32)cc1 [Compound 12c]" target="HDAC9 (Homo sapiens, UniProt Q9UKV0)" observed_value=15.2
compound=NC(=O)c1ccc2c(c1)Oc1ccccc1N2Cc1ccc(C(=O)NO)cc1 target="HDAC9 (Homo sapiens, UniProt Q9UKV0)" observed_value=1.04
compound=O=C(NO)c1ccc(CN2c3ccccc3Oc3cc(-c4ccccc4)ccc32)cc1 target="HDAC9 (Homo sapiens, UniProt Q9UKV0)" observed_value=6.32

A: O=C(NO)c1ccc(CN2c3ccccc3Oc3ccccc32)cc1
B: O=C(NO)c1ccc(CN2c3ccccc3Oc3cc(C(=O)Nc4ccccc4)ccc32)cc1 [Compound 12d]
Prompt line: Which value of IC50 is numerically greater: that of A or that of B ? // output: label of the selected item
Response line: B
(B: 3.64 µM, A: 2.2 µM)

P: N#Cc1ccc2c(c1)Oc1ccccc1N2Cc1ccc(C(=O)NO)cc1
Q: O=C(NO)c1ccc(CN2c3ccccc3Oc3cc(Br)ccc32)cc1
Prompt line: Hi, I'm comparing two records. Which one has the lower IC50, P or Q ? Please reply using the label of the selected record.
Response line: Q

---

target: HDAC4 (Homo sapiens)
Sequence (P56524 whole entry, species assumed): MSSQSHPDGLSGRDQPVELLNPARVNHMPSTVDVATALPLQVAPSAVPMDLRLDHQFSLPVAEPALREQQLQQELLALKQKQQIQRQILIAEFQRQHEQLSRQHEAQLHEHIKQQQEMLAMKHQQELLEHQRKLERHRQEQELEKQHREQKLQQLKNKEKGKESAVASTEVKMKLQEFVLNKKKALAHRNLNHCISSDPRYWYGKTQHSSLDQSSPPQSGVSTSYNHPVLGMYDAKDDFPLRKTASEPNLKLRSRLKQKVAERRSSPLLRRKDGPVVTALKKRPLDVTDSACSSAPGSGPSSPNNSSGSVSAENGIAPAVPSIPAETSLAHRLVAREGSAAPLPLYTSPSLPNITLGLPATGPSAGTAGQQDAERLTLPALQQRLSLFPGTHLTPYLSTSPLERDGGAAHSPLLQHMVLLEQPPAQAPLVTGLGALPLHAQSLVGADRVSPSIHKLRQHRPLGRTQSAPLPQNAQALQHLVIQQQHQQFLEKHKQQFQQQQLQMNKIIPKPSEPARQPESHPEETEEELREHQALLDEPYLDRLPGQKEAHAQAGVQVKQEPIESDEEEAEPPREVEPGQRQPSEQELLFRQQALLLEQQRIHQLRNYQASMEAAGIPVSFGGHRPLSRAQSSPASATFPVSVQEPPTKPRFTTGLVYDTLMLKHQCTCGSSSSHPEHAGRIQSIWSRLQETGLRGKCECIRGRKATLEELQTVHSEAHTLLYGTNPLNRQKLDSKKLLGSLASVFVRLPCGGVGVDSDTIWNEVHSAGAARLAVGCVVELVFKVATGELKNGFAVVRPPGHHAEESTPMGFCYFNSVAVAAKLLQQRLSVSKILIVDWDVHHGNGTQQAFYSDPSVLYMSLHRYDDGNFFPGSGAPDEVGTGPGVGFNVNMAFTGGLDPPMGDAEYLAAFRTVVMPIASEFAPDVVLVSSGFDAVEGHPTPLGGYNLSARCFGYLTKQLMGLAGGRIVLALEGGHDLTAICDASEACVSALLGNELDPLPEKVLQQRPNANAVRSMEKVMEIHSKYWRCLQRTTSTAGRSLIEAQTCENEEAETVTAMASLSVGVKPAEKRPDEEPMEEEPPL
test_method_notes: HDAC activity assay, HDAC4
Type: biochemical
experimental_readout: IC50 (µM)

A selection of reference data follows.
compound=O=C(NO)c1ccc(CN2c3ccccc3Oc3cc(-c4ccccc4)ccc32)cc1 target="HDAC4 (Homo sapiens)" measure_unit=µM observed_value=8.06
compound="O=C(NO)c1ccc(CN2c3ccccc3Oc3cc(C(=O)Nc4ccccc4)ccc32)cc1 [Compound 12d]" target="HDAC4 (Homo sapiens)" measure_unit=µM observed_value=2.94
compound=O=C(NO)c1ccc(CN2c3ccccc3Oc3cc(Br)ccc32)cc1 target="HDAC4 (Homo sapiens)" measure_unit=µM observed_value=3.18
compound=O=C(NO)c1ccc(CN2c3ccccc3Oc3ccccc32)cc1 target="HDAC4 (Homo sapiens)" measure_unit=µM observed_value=4.32
compound=N#Cc1ccc2c(c1)Oc1ccccc1N2Cc1ccc(C(=O)NO)cc1 target="HDAC4 (Homo sapiens)" measure_unit=µM observed_value=3.23

a: NC(=O)c1ccc2c(c1)Oc1ccccc1N2Cc1ccc(C(=O)NO)cc1
b: O=C(NO)c1ccc(CN2c3ccccc3Oc3cc(C(=O)Nc4ccc(C(=O)c5ccccc5)cc4)ccc32)cc1 [Compound 12c]
c: O=C(NO)c1ccc(CN2c3ccccc3Oc3ccc(C(=O)Nc4ccccc4)cc32)cc1 [Compound 12b]
Prompt line: Put the items in order so that reported IC50 rises from first to last. Labels, requested order.
Response line: a, b, c

---

pIC50: −log10 of the molar value.
HDAC7 (Homo sapiens, UniProt Q8WUI4) measurements of pIC50, listed per entry.
Sequence (Q8WUI4 whole entry): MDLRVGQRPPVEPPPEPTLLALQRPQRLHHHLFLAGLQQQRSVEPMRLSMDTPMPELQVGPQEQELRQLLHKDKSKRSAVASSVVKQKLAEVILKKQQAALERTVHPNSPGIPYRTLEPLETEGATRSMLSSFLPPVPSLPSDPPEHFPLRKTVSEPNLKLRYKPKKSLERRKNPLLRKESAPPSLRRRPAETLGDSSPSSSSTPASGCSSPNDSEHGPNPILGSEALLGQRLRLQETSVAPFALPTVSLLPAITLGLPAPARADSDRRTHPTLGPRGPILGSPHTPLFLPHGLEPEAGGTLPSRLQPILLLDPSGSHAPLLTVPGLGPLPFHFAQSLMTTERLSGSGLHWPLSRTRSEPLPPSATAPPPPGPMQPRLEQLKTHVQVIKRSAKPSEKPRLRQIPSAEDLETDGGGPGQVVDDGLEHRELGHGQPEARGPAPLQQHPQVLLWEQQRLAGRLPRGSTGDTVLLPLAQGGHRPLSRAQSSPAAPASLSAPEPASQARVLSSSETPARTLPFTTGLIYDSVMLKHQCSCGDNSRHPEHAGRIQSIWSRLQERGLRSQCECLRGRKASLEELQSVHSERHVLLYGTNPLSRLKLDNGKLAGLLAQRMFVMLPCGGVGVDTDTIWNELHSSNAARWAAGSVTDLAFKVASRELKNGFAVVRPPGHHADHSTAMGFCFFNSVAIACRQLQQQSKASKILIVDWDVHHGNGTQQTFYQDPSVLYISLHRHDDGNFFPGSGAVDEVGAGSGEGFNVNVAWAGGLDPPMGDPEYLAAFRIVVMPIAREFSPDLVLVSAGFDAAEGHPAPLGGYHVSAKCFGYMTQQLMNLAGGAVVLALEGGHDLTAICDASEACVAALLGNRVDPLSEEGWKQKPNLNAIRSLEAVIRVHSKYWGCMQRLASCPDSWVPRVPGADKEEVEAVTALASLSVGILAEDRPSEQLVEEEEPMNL
experimental_readout: pIC50

Use these answered entries as a reference point.
compound=O=C(NO)c1ccc(CN2c3ccccc3Oc3ccccc32)cc1 observed_value=6.10
compound=NC(=O)c1ccc2c(c1)Oc1ccccc1N2Cc1ccc(C(=O)NO)cc1 observed_value=6.28
compound=O=C(NO)c1ccc(CN2c3ccccc3Oc3cc(Br)ccc32)cc1 observed_value=5.76

P: O=C(NO)c1ccc(CN2c3ccccc3Oc3cc(C(=O)Nc4ccc(C(=O)c5ccccc5)cc4)ccc32)cc1 [Compound 12c]
Q: O=C(NO)c1ccc(CN2c3ccccc3Oc3ccc(C(=O)Nc4ccccc4)cc32)cc1 [Compound 12b]
R: N#Cc1ccc2c(c1)Oc1ccccc1N2Cc1ccc(C(=O)NO)cc1
S: O=C(NO)c1ccc(CN2c3ccccc3Oc3cc(-c4ccccc4)ccc32)cc1
Prompt line: Put the items in order so that reported pIC50 rises from first to last. Field: ranking. Enter the labels in the order requested.
Response line: S, Q, R, P
(S: 5.29, Q: 5.65, R: 5.91, P: 6.34)
